// data source = paper PMC9482650

Molecular target: MAGI2_4, Q86UL8
Sequence (Q86UL8 772-865): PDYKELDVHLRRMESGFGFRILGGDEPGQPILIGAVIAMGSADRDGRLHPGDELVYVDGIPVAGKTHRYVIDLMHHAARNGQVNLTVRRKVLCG
Assay: holdup assay
Design: key: below the threshold = too weak to quantify, mostly under pKd 3.1 to 4
Settings: plain residues with an end cap or a label only (N-terminal biotin on a linker: ado-ado)
ATTRIBUTE MEASURED: pKd

* DYSNLRETDI [ADRA1D, P25100] | below the threshold
* PSDSVGKDVF [EGLN1, Q9GZT9] | below the threshold
* TFSRRPKTRV [CD226, Q15762] | below the threshold
* HLSTRQGTCV [ATRNL1, Q5VV63] | 4.97
* GDSSRKEYFI [GYPC, P04921] | below the threshold
* SRPHTNETSL [MCC, P23508] | below the threshold
* NNMAFETTHF [SLC5A12, Q1EHB4] | below the threshold
* RGKNRRQSIF [CDK18, Q07002] | below the threshold
* QKASRNESTF [POLR1D, P0DPB6] | 3.88
* GSQSQVETEA [FKBP4, Q02790] | below the threshold
* HDDYFYHDEL [RCN2, Q14257] | below the threshold
* RSPVATATSC [DUSP5, Q16690] | below the threshold
* DLLGGGSDSI [TNRC6B, Q9UPQ9] | below the threshold
* THREVKFTSL [CD46, P15529] | below the threshold
* PDSYHRRDFW [U2AF2, P26368] | 3.54
* RDYTQSSSSL [GRM5, P41594] | below the threshold
* PGKKPEDSRV [SLCO2B1, O94956] | below the threshold
* LLQEEWETVM [PTH1R, Q03431] | below the threshold
* KIEDVEITLV [FCHSD2, O94868] | 4.07
* GTMFLRETSL [GUCY1A2, P33402] | below the threshold
